test system: DeltatarO mutant; assay: S. aureus survival, RN4220 and DeltatarO strains – OD600, teichoic acid synthesis inhibitors, primary screen (AID 463173); details: S. aureus RN4220 wild type/DeltatarO growth, OD600, 18 h, active compounds read low, screened at 18.75 µg/mL (by protocol)
Among all 52,000 compounds or so, about 4,300 (8.3%) were called active. The list comes from a sample in which actives are over-represented; it also holds close analogues and randomly drawn compounds.
endpoint: survival (%)
Give your result in % as a bare value.

The examples below pair each entry with its known result.
CN1CCN(CCC(=O)Nc2ccc(Cl)cc2)CC1; 61
CCc1cc(C(=O)NC(C)c2ccccc2)no1 (stereo unspecified); 60
Cc1ccc(Nc2ncc(C(=O)Nc3ccc(F)cc3F)c3ccccc23)cc1Cl; 37
CCN1CCN(c2oc(/C=C/c3cc(OC)c(OC)c(OC)c3)nc2C#N)CC1; 72

-- ask // returns reported survival for input CCOC(=O)c1cnc2c(C)cc(C)cc2c1Nc1ccccc1OCC
-- reply -1

-- ask Recorded survival of COc1ccccc1Nc1ncc(C(=O)Nc2ccc(OC)c(OC)c2)c2ccccc12 , please.
-- reply 43

====

test system: DeltatarO mutant; assay: S. aureus survival, RN4220 and DeltatarO strains – OD600, teichoic acid synthesis inhibitors, primary screen (AID 463173); settings: S. aureus RN4220 wild type/DeltatarO growth, OD600, 18 h, active compounds read low, screened at 18.75 µg/mL (by protocol)
About 4,300 (8.3%) of roughly 52,000 compounds were called active. Shown is part of a subset that was picked to be rich in actives.
Reported survival values follow for various compounds
Could you give me the number in %? Just the number is fine.

The examples below pair each entry with its known result.
CCCOc1ccc(C2c3c(-c4ccccc4O)n[nH]c3C(=O)N2CCCOCC)cc1OCC (centres undefined); 81
CC(=O)c1ccc(NC(=O)c2cccc(NC(=O)N3CCSc4ncccc43)c2)cc1; 79
CCOc1ccc(NC(=O)c2oc3ccccc3c2NC(=O)COc2cccc(OC)c2)cc1; 78

Please look at the following compound next.
-- ask Field request: survival | item: Cc1ccc(Cl)cc1NC(=O)c1ccc(NC(=O)N2CCSc3ncccc32)cc1
-- reply 79

====

tested on: DeltatarO mutant; test: S. aureus survival, RN4220 and DeltatarO strains – OD600, teichoic acid synthesis inhibitors, primary screen (AID 463173); conditions: S. aureus RN4220 wild type/DeltatarO growth, OD600, 18 h, active compounds read low, screened at 18.75 µg/mL (by protocol)
In all, about 52,000 compounds went through this assay and about 4,300 (8.3%) were called active. Shown is part of a subset that was picked to be rich in actives.
So basically: is survival under 70%? Then True. Not under? Then False.

CC1CCC(NC(=O)c2ccc(CSc3nc4ccncc4n3Cc3ccc(F)cc3)cc2)CC1 (stereo not drawn); True

-- ask Here's an entry: Cc1nnc(SCc2ccccc2Cl)c2cc3occc3n12 . Is its survival below 70%?
-- reply False

-- ask Lab log: compare recorded survival with 70%; is it strictly lower for Cc1nn(-c2ccccc2)c(OC(=O)c2ccc(Cl)cc2)c1S(=O)(=O)c1ccccc1 ?
-- reply False

-- ask Is survival of Cc1cc2c(cc3c(SCc4ccc(Cl)cc4)nnc(C)n32)o1 strictly below 70%?
-- reply True

-- ask API: query returns whether the compound falls strictly under 70% in survival. Query: Cc1cccc(C)c1NC(=O)Nc1csc2c1CCCC2
-- reply False

-- ask Is it true that survival reported for Cc1ccc(C)c(NC(=O)Nc2csc3c2CCCC3)c1 is less than 70%?
-- reply False

-- ask Decide: survival of Cc1ccc(NC(=O)c2sc3nc(-c4ccc(F)cc4)cn3c2C)c(C)c1 strictly below 70%?
-- reply False

-- ask Threshold test, survival < 70%: COc1cc(C)ccc1OCCCn1c(-c2ccc(Cl)cc2)nc2ccccc2c1=O
-- reply True

This collection of values is drawn from PubChem BioAssay AID463173.
